- Test system: Vero E6
- procedure-details: cell viability relative to DMSO; higher = less toxic
- condition-details: 72 h; 10000 nM
measured-attribute: cell viability (%)
Enter your answer as a number in %; do not include the unit.

> print(dat)
                                   compound  target.of.assay  u  assay.result
1  OC(CN1CCN(c2cccc(Cl)c2)CC1)C(c1ccccc1)c1ccccc1 (stereo not drawn)          Vero E6  %           104
2  C[N+]1(C)[C@@H]2CC[C@H]1C[C@@H](OC(=O)C(CO)c1ccccc1)C2 (stereo partly drawn) [methylatropine-nitrate]          Vero E6  %           104
3  C=CC(=O)Nc1cccc(Nc2nc(Nc3ccc(OCCOC)cc3)ncc2F)c1          Vero E6  %          11.9
4                    O=C(/C=C/c1ccccc1)NCCO          Vero E6  %           100
5  C[C@@]1(F)[C@H](O)[C@@H](CO)O[C@H]1n1ccc(N)nc1=O          Vero E6  %           106

Query :: For CC(=O)[C@H]1CC[C@H]2[C@@H]3CC[C@H]4C[C@H](O)CC[C@]4(C)[C@H]3C(=O)C[C@]12C , what is its reported cell viability?
Result :: 107

Query :: For CC[C@@H]1C(=O)N(C)c2cnc(Nc3ccc(C(=O)NC4CCN(C)CC4)cc3OC)nc2N1C1CCCC1 , what is its reported cell viability?
Result :: 1.1

Query :: For CCN1CCC(n2cc(CNc3cc(Cl)c4ncc(C#N)c(Nc5ccc(F)c(Cl)c5)c4c3)nn2)CC1 , what is its reported cell viability?
Result :: 81.6

Query :: For O=C(NCCO)c1cc(C(=O)NCCO)cc(C(=O)NCCO)c1 , what is its reported cell viability?
Result :: 105

Query :: For CCCC(=O)Nc1ncnc2c1ncn2[C@@H]1O[C@@H]2COP(=O)(O)O[C@H]2[C@H]1OC(=O)CCC , what is its reported cell viability?
Result :: 95.2

###

Listing of recorded cell viability by entry.
- System: HepG2
- procedure-details: cell viability relative to DMSO; higher = less toxic
- condition-details: 72 h; 1000 nM
Enter your answer as a number in %; do not include the unit.

Record excerpt, results attached:
> print(dat)
                                   compound  target.of.assay  assay.result
1  Cc1csc2c(N[C@@H](C)CN3CCN(S(=O)(=O)c4ccc(Cl)c(Cl)c4)CC3)ncnc12            HepG2          36.6
2  CC(C)(C)NCC(O)COc1cccc2[nH]c(=O)[nH]c12 (stereo not drawn)            HepG2           110
3  CC(=O)SC[C@@H](Cc1ccccc1)C(=O)NCC(=O)OCc1ccccc1 (racemic)            HepG2          89.7
4                 CN(C)C(=O)Oc1ccc[n+](C)c1            HepG2          91.2

Query :: For CNCC(O)c1ccc(OC(=O)C(C)(C)C)c(OC(=O)C(C)(C)C)c1 (stereo not drawn) , what is its reported cell viability?
Result :: 97.7

Query :: For S=P(N1CC1)(N1CC1)N1CC1 , what is its reported cell viability?
Result :: 100

Query :: For CCC(CC)COC(=O)[C@H](C)N[P@](=O)(OC[C@H]1O[C@@](C#N)(c2ccc3c(N)ncnn23)[C@H](O)[C@@H]1O)Oc1ccccc1 , what is its reported cell viability?
Result :: 70.2

Query :: For O=C(O)c1ccccc1Nc1cc(Cl)ccc1C(=O)O , what is its reported cell viability?
Result :: 103

Query :: For Cc1cccc(/C=C/c2ccccc2)n1 , what is its reported cell viability?
Result :: 102

Query :: For O=C(NCc1cccc(O)c1)Nc1nc(-c2ccncc2)cs1 , what is its reported cell viability?
Result :: 92

Query :: For O=S(=O)(/N=C/c1c(O)ccc2ccccc12)c1cccs1 , what is its reported cell viability?
Result :: 109

###

- System: Vero E6
- procedure-details: cell viability relative to DMSO; higher = less toxic
- condition-details: 72 h; 10000 nM
measured-attribute: cell viability (%)
Enter your answer as a number in %; do not include the unit.

compound	cell viability, %
CCCCN(Cc1ccc(C(=O)NO)cc1)C(=O)Nc1ccccc1	56.6
Cc1cn(-c2cc(NC(=O)c3ccc(C)c(Nc4nccc(-c5cccnc5)n4)c3)cc(C(F)(F)F)c2)cn1	106

Query :: For CNCC[C@@H](Oc1ccccc1C)c1ccccc1 , what is its reported cell viability?
Result :: 99.1

Query :: For CCN(c1nc(N)c(C(=O)NC(=N)N)nc1Cl)C(C)C , what is its reported cell viability?
Result :: 104

Query :: For C=CCOc1ccccc1OCC(O)CNC(C)C (centres undefined) , what is its reported cell viability?
Result :: 98.6

Query :: For CCN(CC)CCNc1ccc(CO)c2sc3ccccc3c(=O)c12 , what is its reported cell viability?
Result :: 32.8

Query :: For CC(C)(O)CNc1nc(Nc2ccnc(C(F)(F)F)c2)nc(-c2cccc(C(F)(F)F)n2)n1 , what is its reported cell viability?
Result :: 101

Query :: For CCCC[N+]1(C)[C@@H]2C[C@@H](OC(=O)[C@H](CO)c3ccccc3)C[C@H]1[C@@H]1O[C@@H]12 (some centres undefined) [butylscopolamine-bromide] , what is its reported cell viability?
Result :: 108

Query :: For CCCCCCCCNC(C)C(O)c1ccc(SC(C)C)cc1 (centres undefined) , what is its reported cell viability?
Result :: 97.4

###

- System: Caco-2
- procedure-details: cell viability relative to DMSO; higher = less toxic
- condition-details: 72 h; 10000 nM
Listing of recorded cell viability by entry.
Enter your answer as a number in %; do not include the unit.

Record excerpt, results attached:
> print(dat)
                                smiles.repr  measured.attribute  assay.result
1             COc1ccc2[nH]cc(CCNC(C)=O)c2c1      cell viability          99.5
2         N#Cc1ccc(-c2csc(NN=C3CCCC3)n2)cc1      cell viability          76.6
3  CN1CCN(c2ccc3[nH]c(-c4ccc5[nH]c(-c6ccc(O)cc6)nc5c4)nc3c2)CC1      cell viability           103

Shift focus to the following entry.
Query :: For CCC(=O)N1CCOc2c(cc(-c3ccc(OC)c(OC)c3)cc2OC[C@H]2CCCN(C)C2)C1 , what is its reported cell viability?
Result :: 94.7

###

- Tested on: U2OS
- procedure-details: cell viability relative to DMSO; higher = less toxic
- condition-details: 72 h; 10000 nM
Where a name gives a salt, the structure may show the parent alone.
Listing of recorded cell viability by entry.
Enter your answer as a number in %; do not include the unit.

Query :: For CCn1c(N)c(C(=O)NC)c(=O)c2ccc(C#C[C@@](C)(O)COC)nc21 , what is its reported cell viability?
Result :: 97.4

Query :: For CC1=C(C(=O)O)N2C(=O)[C@@H](NC(=O)[C@H](N)C3=CCC=CC3)[C@H]2SC1 , what is its reported cell viability?
Result :: 102

Query :: For c1ccc(OCc2ccc(CCCN3CCOCC3)cc2)cc1 , what is its reported cell viability?
Result :: 101

Query :: For CCN(CC)CCNc1ccc(CO)c2sc3ccccc3c(=O)c12 , what is its reported cell viability?
Result :: 85.2

Query :: For NC(=O)N1c2ccccc2C=Cc2ccccc21 [carbamazepine] , what is its reported cell viability?
Result :: 104

Query :: For CCCC(=O)Nc1ncnc2c1ncn2[C@@H]1O[C@@H]2COP(=O)(O)O[C@H]2[C@H]1OC(=O)CCC , what is its reported cell viability?
Result :: 100

Query :: For Cc1ccccc1CN1C(=O)C2=C(CCN(Cc3ccccc3)C2)N2CCN=C12 , what is its reported cell viability?
Result :: 41.1

Query :: For CCC[C@@H]1C[C@@H](C(=O)N[C@@H]([C@H]2O[C@H](SC)[C@H](O)[C@@H](O)[C@H]2O)[C@H](C)Cl)N(C)C1 [CLINDAMYCIN HYDROCHLORIDE] , what is its reported cell viability?
Result :: 103

Query :: For O=C(O)c1cccnc1Nc1cccc(C(F)(F)F)c1 , what is its reported cell viability?
Result :: 102

Query :: For N=C(NCc1ccc(Cl)cc1)SCCCc1c[nH]cn1 , what is its reported cell viability?
Result :: 99.6

###

- Test system: HepG2
- procedure-details: cell viability relative to DMSO; higher = less toxic
- condition-details: 72 h; 10000 nM
Listing of recorded cell viability by entry.
Enter your answer as a number in %; do not include the unit.

Query :: Tell me reported cell viability for Cn1cc(-c2ccc3nnc(C(F)(F)c4ccc5ncccc5c4)n3n2)cn1 , tested with HepG2.
Result :: 104

Query :: Tell me reported cell viability for CC(C)c1ccc(-c2cc(=O)c3ccccc3o2)cc1 , tested with HepG2.
Result :: 65.1

Query :: Tell me reported cell viability for O=C(CC12CC3CC(CC(C3)C1)C2)Nc1cccc2nc(NCCNCCO)ccc12 , tested with HepG2.
Result :: 99.9

Query :: Tell me reported cell viability for CCCC(=O)Nc1ncnc2c1ncn2[C@@H]1O[C@@H]2COP(=O)(O)O[C@H]2[C@H]1OC(=O)CCC , tested with HepG2.
Result :: 96

Query :: Tell me reported cell viability for CNCC(O)c1ccc(OC(=O)C(C)(C)C)c(OC(=O)C(C)(C)C)c1 (centres undefined) , tested with HepG2.
Result :: 84.3

Query :: Tell me reported cell viability for CCN(Cc1ccncc1)C(=O)C(CO)c1ccccc1 (centres undefined) [tropicamide] , tested with HepG2.
Result :: 97.8
